Below, each entry is listed with its recorded inhibition.
# Test system: Mast/stem cell growth factor receptor Kit (Homo sapiens), P10721 [V560G]
# Sequence (P10721 whole entry V560G): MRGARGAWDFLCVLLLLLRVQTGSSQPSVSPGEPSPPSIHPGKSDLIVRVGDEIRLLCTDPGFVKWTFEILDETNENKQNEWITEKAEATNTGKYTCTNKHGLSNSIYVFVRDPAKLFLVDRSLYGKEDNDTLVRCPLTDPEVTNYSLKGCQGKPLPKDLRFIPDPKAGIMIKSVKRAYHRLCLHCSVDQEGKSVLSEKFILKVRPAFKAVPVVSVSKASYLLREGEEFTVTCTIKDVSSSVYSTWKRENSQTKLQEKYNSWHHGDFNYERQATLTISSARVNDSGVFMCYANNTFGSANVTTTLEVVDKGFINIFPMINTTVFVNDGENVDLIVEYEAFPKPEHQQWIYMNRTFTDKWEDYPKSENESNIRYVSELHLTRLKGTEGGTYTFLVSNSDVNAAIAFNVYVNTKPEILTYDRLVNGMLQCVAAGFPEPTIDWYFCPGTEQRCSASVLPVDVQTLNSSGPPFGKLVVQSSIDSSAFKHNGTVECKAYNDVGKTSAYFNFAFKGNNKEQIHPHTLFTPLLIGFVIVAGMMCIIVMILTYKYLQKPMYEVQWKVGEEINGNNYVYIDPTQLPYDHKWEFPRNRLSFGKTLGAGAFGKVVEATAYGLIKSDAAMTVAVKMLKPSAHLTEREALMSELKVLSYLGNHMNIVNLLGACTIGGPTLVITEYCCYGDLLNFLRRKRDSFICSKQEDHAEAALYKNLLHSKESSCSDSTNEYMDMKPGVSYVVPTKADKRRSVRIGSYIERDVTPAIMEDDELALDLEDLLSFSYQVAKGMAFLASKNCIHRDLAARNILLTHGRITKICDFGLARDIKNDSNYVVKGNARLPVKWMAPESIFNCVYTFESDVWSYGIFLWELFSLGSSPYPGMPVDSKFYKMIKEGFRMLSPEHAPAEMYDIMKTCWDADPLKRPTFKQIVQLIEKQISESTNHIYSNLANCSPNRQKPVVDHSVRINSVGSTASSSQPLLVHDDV
# Measurement context: at 0.1 µM
Number in %, nothing else.

Below are worked cases with known answers.
smiles_code=CS(=O)(=O)CCNCc1nc(-c2ccc3ncnc(Nc4ccc(OCc5cccc(C(F)(F)F)c5)cc4)c3c2)cs1 measured_quantity=inhibition reading_unit=% recorded_result=0.77
smiles_code=Cc1cc(O)cc(C)c1/C=C/c1cncc(C(=O)N(C)C)c1 measured_quantity=inhibition reading_unit=% recorded_result=5.07
smiles_code=COC(=O)c1ccc2c(c1)C(=Cc1cc(Br)c(O)c(Br)c1)C(=O)N2 measured_quantity=inhibition reading_unit=% recorded_result=-3.35
smiles_code=CN(c1ccc(NC(=O)Nc2ccc(OC(F)(F)F)cc2)cc1)c1ccnc(Nc2cccc(S(N)(=O)=O)c2)n1 measured_quantity=inhibition reading_unit=% recorded_result=37.6

Consider the additional compound presented here.
*Q* Reported inhibition for `Oc1cccc(-c2nc(-c3ccccc3)[nH]c2-c2ccncc2)c1` : what is it?
*A* 1.61

----------
# Measured on: NUAK family SNF1-like kinase 1 (Homo sapiens)
# Measurement context: at 0.1 µM
Below, each entry is listed with its recorded inhibition.
Number in %, nothing else.

Below are worked cases with known answers.
compound=COc1cc2ncnc(Nc3ccc(C)c(O)c3)c2cc1OC measured_on="NUAK family SNF1-like kinase 1 (Homo sapiens)" measured_quantity=inhibition recorded_result=7.16
compound=[O-][S+]1CCN(Cc2ccc(-c3ccc4ncnc(Nc5ccc(OCc6ccccc6)c(Cl)c5)c4c3)o2)CC1 measured_on="NUAK family SNF1-like kinase 1 (Homo sapiens)" measured_quantity=inhibition recorded_result=-2.45
compound=O=C(Nc1ccc(Oc2ccc3[nH]c(NC(=O)c4ccco4)nc3c2)cc1)Nc1cc(C(F)(F)F)ccc1F measured_on="NUAK family SNF1-like kinase 1 (Homo sapiens)" measured_quantity=inhibition recorded_result=0.89
compound=CCn1c(-c2nonc2N)nc2ccc(F)cc21 measured_on="NUAK family SNF1-like kinase 1 (Homo sapiens)" measured_quantity=inhibition recorded_result=1.74
compound=Oc1cccc(-c2nc(-c3ccccc3)[nH]c2-c2ccncc2)c1 measured_on="NUAK family SNF1-like kinase 1 (Homo sapiens)" measured_quantity=inhibition recorded_result=0.46

Consider the additional compound presented here.
*Q* Reported inhibition for `COC(=O)c1ccc2c(c1)C(=Cc1cc(Br)c(O)c(Br)c1)C(=O)N2` : what is it?
*A* -1.29

----------
# Measured on: Serine/threonine-protein kinase 26 (Homo sapiens) (UniProt Q9P289)
# Sequence (Q9P289 2-416 limits assumed): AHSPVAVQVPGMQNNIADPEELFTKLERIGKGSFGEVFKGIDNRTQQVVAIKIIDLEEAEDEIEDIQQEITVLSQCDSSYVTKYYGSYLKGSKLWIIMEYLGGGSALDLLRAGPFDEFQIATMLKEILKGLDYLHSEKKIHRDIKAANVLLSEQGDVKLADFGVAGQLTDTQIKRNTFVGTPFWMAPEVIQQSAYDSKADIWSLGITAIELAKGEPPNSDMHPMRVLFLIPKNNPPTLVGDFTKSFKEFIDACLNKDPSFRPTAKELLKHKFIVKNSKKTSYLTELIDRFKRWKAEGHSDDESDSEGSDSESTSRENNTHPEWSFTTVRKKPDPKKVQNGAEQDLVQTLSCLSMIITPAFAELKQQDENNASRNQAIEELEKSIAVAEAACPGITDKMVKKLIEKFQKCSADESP
# Measurement context: at 1 µM
Measured quantity: inhibition (%)
Number in %, nothing else.

Below are worked cases with known answers.
smiles_code=NS(=O)(=O)c1ccc(-c2cc3ccncc3cc2OCc2ccccc2)cc1 measured_quantity=inhibition reading_unit=% recorded_result=0.38
smiles_code=OCc1ccc(-c2nc(-c3ccccn3)c(-c3ccc4c(c3)OCO4)[nH]2)cc1 measured_quantity=inhibition reading_unit=% recorded_result=-2.75
smiles_code=c1ccc(Cc2nc3ccc(Nc4ncnc5ccccc45)cc3[nH]2)cc1 measured_quantity=inhibition reading_unit=% recorded_result=-0.26
smiles_code=C[C@@H](Oc1cc(-n2cnc3ccc(OC[C@@H](O)CO)cc32)sc1C(N)=O)c1ccccc1Cl measured_quantity=inhibition reading_unit=% recorded_result=1.05

Consider the additional compound presented here.
*Q* Reported inhibition for `NS(=O)(=O)c1cccc(Nc2cc(-c3ccc(F)cc3)n[nH]2)c1` : what is it?
*A* 0.86

----------
# Measured on: Activated CDC42 kinase 1 (Homo sapiens)
# Measurement context: at 0.1 µM
Below, each entry is listed with its recorded inhibition.
Number in %, nothing else.

Below are worked cases with known answers.
smiles_code=COc1ccc2ncnc(Nc3ccc(OCc4ccccc4)cc3)c2c1 reading_unit=% recorded_result=0.68
smiles_code=Nc1nccc(C#Cc2cncnc2Nc2ccc(OCc3cccc(F)c3)c(Cl)c2)n1 reading_unit=% recorded_result=1.73
smiles_code=c1ccc(Nc2ncc(-c3ccccc3)o2)cc1 reading_unit=% recorded_result=1.38
smiles_code=COc1cccc(-n2ncc3c(N/N=C/c4ccc(C)cc4)ncnc32)c1 reading_unit=% recorded_result=0.47
smiles_code=Cc1cc(O)cc(C)c1/C=C/c1cncc(C(=O)N(C)C)c1 reading_unit=% recorded_result=1.45

*Q* Reported inhibition for `COc1cccc(-n2nc(C)c3c(N/N=C(\C)c4ccncc4)ncnc32)c1` : what is it?
*A* -0.22

*Q* Try this compound too: `C[C@@H](Oc1cc(-n2cnc3ccc(OC[C@@H](O)CO)cc32)sc1C(N)=O)c1ccccc1Cl`
*A* -0.26

*Q* Try this compound too: `NS(=O)(=O)c1cccc(-c2cc3ccncc3cc2OCc2ccccc2)c1`
*A* 0.71

*Q* Try this compound too: `CS(=O)(=O)Nc1cccc(-c2ccc3c(NC(=O)C4CC4)n[nH]c3c2)c1`
*A* -0.85

*Q* Try this compound too: `NC(=O)c1sc(-n2cnc3ccccc32)cc1OCc1ccccc1Br`
*A* 0.68

----------
# Measured on: Vascular endothelial growth factor receptor 3 (Homo sapiens) (UniProt P35916)
# Sequence (P35916 whole entry): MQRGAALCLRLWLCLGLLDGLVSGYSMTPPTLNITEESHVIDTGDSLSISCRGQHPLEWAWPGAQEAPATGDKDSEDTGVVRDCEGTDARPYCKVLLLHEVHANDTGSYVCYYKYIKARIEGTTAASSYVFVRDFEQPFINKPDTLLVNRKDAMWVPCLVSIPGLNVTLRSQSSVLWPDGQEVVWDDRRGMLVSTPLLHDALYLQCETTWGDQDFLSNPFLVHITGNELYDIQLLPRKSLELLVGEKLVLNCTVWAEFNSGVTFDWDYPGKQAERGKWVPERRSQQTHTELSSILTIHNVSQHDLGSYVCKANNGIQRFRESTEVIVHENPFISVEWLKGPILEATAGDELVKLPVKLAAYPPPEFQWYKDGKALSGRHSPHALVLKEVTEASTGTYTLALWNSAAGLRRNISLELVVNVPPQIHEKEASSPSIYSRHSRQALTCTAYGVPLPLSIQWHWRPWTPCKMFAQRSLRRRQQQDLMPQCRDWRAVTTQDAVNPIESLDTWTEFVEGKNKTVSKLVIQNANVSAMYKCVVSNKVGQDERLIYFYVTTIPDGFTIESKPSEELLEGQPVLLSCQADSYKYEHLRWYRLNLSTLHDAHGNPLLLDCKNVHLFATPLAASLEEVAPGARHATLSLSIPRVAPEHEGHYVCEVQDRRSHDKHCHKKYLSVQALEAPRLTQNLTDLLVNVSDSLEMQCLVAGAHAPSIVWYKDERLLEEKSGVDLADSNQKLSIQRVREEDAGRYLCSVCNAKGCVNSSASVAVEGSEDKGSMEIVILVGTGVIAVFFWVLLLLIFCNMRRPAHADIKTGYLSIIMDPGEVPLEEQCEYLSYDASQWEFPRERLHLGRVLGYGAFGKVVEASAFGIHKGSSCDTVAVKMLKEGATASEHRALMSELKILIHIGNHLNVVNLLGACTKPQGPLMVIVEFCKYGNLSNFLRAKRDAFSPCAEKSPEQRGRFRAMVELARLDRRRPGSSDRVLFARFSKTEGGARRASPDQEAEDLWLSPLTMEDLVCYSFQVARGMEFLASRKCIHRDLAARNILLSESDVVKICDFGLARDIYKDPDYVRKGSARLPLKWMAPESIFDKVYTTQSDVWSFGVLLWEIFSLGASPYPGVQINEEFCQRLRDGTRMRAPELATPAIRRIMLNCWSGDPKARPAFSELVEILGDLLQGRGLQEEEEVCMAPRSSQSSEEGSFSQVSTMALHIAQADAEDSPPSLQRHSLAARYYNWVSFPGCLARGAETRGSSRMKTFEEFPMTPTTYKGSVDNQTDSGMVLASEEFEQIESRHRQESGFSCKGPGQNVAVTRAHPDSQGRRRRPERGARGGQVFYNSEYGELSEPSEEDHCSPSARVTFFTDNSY
# Measurement context: at 0.1 µM
# Description: GSK_PKIS: FLT4 mean inhibition at 0.1 uM [Nanosyn]
Below, each entry is listed with its recorded inhibition.

smiles_code=Cc1cc(-c2ccccn2)cc(C)c1/C=C/c1cncc(-c2nn[nH]n2)c1 recorded_result=9.28%

*Q* Query inhibition on Vascular endothelial growth factor receptor 3 (Homo sapiens) (UniProt P35916) for `Nc1ccc(C#Cc2cncnc2Nc2ccc(OCc3cccc(F)c3)c(Cl)c2)cc1`
*A* 1.01%

*Q* Try this molecule too: `Nc1nccc(-c2c(-c3ccc(F)cc3)ncn2CCCN2CCOCC2)n1`
*A* 15.4%

*Q* Try this molecule too: `C[C@@H](Oc1cc(-n2cnc3ccc(OC[C@@H](O)CO)cc32)sc1C(N)=O)c1ccccc1Cl`
*A* 3.69%

*Q* Try this molecule too: `COc1cc(Nc2nccc(-c3cnn4ncccc34)n2)cc(OC)c1`
*A* 10.4%

----------
# Measured on: Ribosomal protein S6 kinase alpha-2 (Homo sapiens) (UniProt Q15349)
# Sequence (Q15349 whole entry): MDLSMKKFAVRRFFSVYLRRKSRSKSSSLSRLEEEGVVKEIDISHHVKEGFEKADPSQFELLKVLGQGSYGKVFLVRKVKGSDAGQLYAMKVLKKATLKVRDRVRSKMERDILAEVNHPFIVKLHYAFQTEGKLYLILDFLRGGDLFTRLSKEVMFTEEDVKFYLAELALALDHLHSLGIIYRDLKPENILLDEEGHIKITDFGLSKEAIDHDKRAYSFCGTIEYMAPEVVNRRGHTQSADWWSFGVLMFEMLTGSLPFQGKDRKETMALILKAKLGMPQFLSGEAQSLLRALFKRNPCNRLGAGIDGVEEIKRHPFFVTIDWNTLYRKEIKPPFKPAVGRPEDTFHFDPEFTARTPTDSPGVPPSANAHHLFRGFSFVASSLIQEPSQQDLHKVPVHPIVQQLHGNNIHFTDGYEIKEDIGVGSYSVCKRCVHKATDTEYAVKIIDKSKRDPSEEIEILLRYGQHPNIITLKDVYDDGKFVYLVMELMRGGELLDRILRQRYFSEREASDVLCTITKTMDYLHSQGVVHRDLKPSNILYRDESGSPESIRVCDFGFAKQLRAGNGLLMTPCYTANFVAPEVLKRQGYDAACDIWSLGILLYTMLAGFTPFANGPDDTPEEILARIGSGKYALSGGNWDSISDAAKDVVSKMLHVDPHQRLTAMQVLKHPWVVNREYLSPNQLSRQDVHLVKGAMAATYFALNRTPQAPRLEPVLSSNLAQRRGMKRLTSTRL
# Measurement context: at 0.1 µM
Below, each entry is listed with its recorded inhibition.
Number in %, nothing else.

smiles_code=NS(=O)(=O)c1ccc(-c2cc3ccncc3cc2OCc2ccccc2)cc1 recorded_result=0.22

*Q* Reported inhibition for `NS(=O)(=O)c1ccc(NC=C2C(=O)Nc3ccc4ncsc4c32)cc1` : what is it?
*A* 34.3

*Q* Try this compound too: `O=C(Nc1ccc(Oc2ccc3[nH]c(NC(=O)c4ccco4)nc3c2)cc1)Nc1cc(C(F)(F)F)ccc1F`
*A* 5.27

*Q* Try this compound too: `Cc1ccc(C(=O)NC2CC2)cc1-c1ccc2[nH]ncc2c1`
*A* -0.94

*Q* Try this compound too: `CCn1c(-c2nonc2N)nc2ccc(F)cc21`
*A* 2.93

*Q* Try this compound too: `C[C@@H](Oc1cc(-n2cnc3ccc(OCC4CCN(C)CC4)cc32)sc1C(N)=O)c1ccccc1C(F)(F)F`
*A* 3.14

*Q* Try this compound too: `C[C@@H](Oc1cc(-n2cnc3ccc(OC[C@@H](O)CO)cc32)sc1C(N)=O)c1ccccc1Cl`
*A* -0.54

*Q* Try this compound too: `CN1CCN(C(=O)c2ccc(NC(=O)Nc3ccc(N(C)c4ccnc(Nc5ccc(CS(C)(=O)=O)cc5)n4)cc3)cc2)CC1`
*A* 2.14

*Q* Try this compound too: `Cc1ccc2c(c1)/C(=N/Nc1ccc(S(N)(=O)=O)cc1)C(=O)N2`
*A* 0.05

----------
# Measured on: Fibroblast growth factor receptor 1 (Homo sapiens) (UniProt P11362)
# Sequence (P11362 22-822 limits assumed): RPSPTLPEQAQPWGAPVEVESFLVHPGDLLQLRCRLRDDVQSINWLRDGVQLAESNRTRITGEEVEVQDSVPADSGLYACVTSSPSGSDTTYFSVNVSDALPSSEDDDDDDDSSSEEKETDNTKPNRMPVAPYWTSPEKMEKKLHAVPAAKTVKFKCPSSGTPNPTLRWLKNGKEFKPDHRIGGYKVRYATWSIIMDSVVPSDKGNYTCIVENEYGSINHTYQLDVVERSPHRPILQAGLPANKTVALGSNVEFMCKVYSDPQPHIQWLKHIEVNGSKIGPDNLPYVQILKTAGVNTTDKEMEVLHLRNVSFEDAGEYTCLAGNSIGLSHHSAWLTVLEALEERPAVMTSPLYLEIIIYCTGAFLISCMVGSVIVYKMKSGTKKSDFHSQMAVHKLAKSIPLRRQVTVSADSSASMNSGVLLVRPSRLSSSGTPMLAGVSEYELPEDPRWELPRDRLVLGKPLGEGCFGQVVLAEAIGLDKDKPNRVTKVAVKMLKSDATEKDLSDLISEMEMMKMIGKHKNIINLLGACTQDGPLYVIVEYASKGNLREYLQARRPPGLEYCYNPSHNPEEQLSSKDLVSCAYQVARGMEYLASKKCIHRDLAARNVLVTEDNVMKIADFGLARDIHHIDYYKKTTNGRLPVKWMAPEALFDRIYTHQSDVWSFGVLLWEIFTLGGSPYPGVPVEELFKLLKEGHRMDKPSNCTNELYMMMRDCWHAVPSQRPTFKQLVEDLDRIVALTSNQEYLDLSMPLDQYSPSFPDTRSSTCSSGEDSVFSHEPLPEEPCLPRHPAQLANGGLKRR
# Measurement context: at 0.1 µM
Measured quantity: inhibition (%)
Number in %, nothing else.

Below are worked cases with known answers.
smiles_code=COc1cc2ncnc(Nc3ccc4c(cnn4Cc4ccccc4)c3)c2cc1OC measured_quantity=inhibition recorded_result=-0.45
smiles_code=NS(=O)(=O)c1ccc(-c2cc3ccncc3cc2OCc2ccccc2)cc1 measured_quantity=inhibition recorded_result=4.72
smiles_code=O=S(=O)(CCOCc1ccc(-c2ccc3ncnc(Nc4ccc(OCc5cccc(F)c5)c(Cl)c4)c3c2)o1)c1ccccc1 measured_quantity=inhibition recorded_result=1.05
smiles_code=COc1ccc2ncnc(Nc3ccc(OCc4ccccc4)cc3)c2c1 measured_quantity=inhibition recorded_result=1.89

*Q* Reported inhibition for `Cc1ccc(C(=O)NC2CC2)cc1-c1ccc2[nH]ncc2c1` : what is it?
*A* -0.69

*Q* Try this molecule too: `NS(=O)(=O)c1ccc(N/N=C2\C(=O)Nc3ccc(Cl)cc32)cc1`
*A* 1.63

*Q* Try this molecule too: `COc1ccc(-c2nn3ncccc3c2-c2ccnc(Nc3cccc(C(F)(F)F)c3)n2)cc1`
*A* 1.38

*Q* Try this molecule too: `Cc1ccc(NC(=O)CC2CC2)cc1-c1ccc(C(=O)NCC2CC2)cc1`
*A* 5.11

*Q* Try this molecule too: `Cc1cc(Cl)cc2c1NC(=O)C2=NNc1ccc(S(N)(=O)=O)cc1`
*A* 3.14

*Q* Try this molecule too: `[O-][S+]1CCN(Cc2ccc(-c3ccc4ncnc(Nc5ccc(OCc6ccccc6)c(Cl)c5)c4c3)o2)CC1`
*A* -2.69
